viability, T/C for assorted molecules
# Tested on: 898857-211-R-J1-PDC complex spheroids, growth % test/control
# ASSAY_OVERVIEW: Anticancer human tumor 898857-211-R-J1-PDC patient-derived melanoma cell line growth inhibition [RAS]
# EXPERIMENTAL_SETUP: second compound 0.00949 µM; first compound 3.16 µM; stronger effect = lower value
ENDPOINT_NAME: viability, T/C (%)

• C[C@@H](NC(=O)c1ncnc(N)c1Cl)c1ncc(C(=O)Nc2cc(C(F)(F)F)c(Cl)cn2)s1 + CCn1c(-c2cc(N3CCN(C)CC3)cnc2C(C)OC)c2c3cc(ccc31)-c1csc(n1)CC(NC(=O)C1CC1C)C(=O)N1CCCC(N1)C(=O)OCC(C)(C)C2 = 33.9
• CC(Nc1ccc2c(c1)OCCn1cc(N3C(=O)OCC3C(F)F)nc1-2)C(N)=O (configuration not stated) + CCn1c(-c2cc(N3CCN(C)CC3)cnc2C(C)OC)c2c3cc(ccc31)-c1csc(n1)CC(NC(=O)C1CC1C)C(=O)N1CCCC(N1)C(=O)OCC(C)(C)C2 = 63

---

# Test system: 898857-211-R-J1-PDC complex spheroids, growth % test/control
# ASSAY_OVERVIEW: Anticancer human tumor 898857-211-R-J1-PDC cell line growth inhibition [RAS];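 also: spheroids exposed to compound for seven days before readout; 100% = DMSO vehicle control wells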
# EXPERIMENTAL_SETUP: second compound 0.316 µM; first compound 1 µM; stronger effect = lower value
ENDPOINT_NAME: viability, T/C (%)

- C=CC(=O)Nc1cc(Nc2nccc(-c3cn(C)c4ccccc34)n2)c(OC)cc1N(C)CCN(C)C + C=CC(=O)N1CCN(c2nc(OCC3CCCN3C)nc3c(F)c(-c4nc(N)cc(C)c4C(F)(F)F)c(Cl)cc23)C(C)C1: 53.7
- C=CC(=O)N1CCN(c2nc(OCC3CCCN3C)nc3c(F)c(-c4nc(N)cc(C)c4C(F)(F)F)c(Cl)cc23)C(C)C1 (stereo not given) + C#Cc1c(F)ccc2cc(O)cc(-c3ncc4c(N5CC6CCC(C5)N6)nc(OCC56CCCN5CC(F)C6)nc4c3F)c12: 129
- NC1c2ccccc2OC12CCN(c1cnc3c(N4CCCc5ncccc54)n[nH]c3n1)CC2 (stereo not given) + C#Cc1c(F)ccc2cc(O)cc(-c3ncc4c(N5CC6CCC(C5)N6)nc(OCC56CCCN5CC(F)C6)nc4c3F)c12: 88.1
- CC(C)NCC(C(=O)N1CCN(c2ncnc3c2C(C)CC3O)CC1)c1ccc(Cl)cc1 (stereo not given) + C#Cc1c(F)ccc2cc(O)cc(-c3ncc4c(N5CC6CCC(C5)N6)nc(OCC56CCCN5CC(F)C6)nc4c3F)c12: 83.4
- O=C(c1ccc(F)c(F)c1Nc1ccc(I)cc1F)N1CC(O)([C@@H]2CCCCN2)C1 + C#Cc1c(F)ccc2cc(O)cc(-c3ncc4c(N5CC6CCC(C5)N6)nc(OCC56CCCN5CC(F)C6)nc4c3F)c12: 14.5

---

# Test system: 898857-211-R-J1-PDC complex spheroids, growth % test/control
# ASSAY_OVERVIEW: Anticancer human tumor 898857-211-R-J1-PDC cell line growth inhibition [RAS];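 also: spheroids exposed to compound for seven days before readout; 100% = DMSO vehicle control wells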
# EXPERIMENTAL_SETUP: second compound 0.01 µM; first compound 0.316 µM; stronger effect = lower value
ENDPOINT_NAME: viability, T/C (%)

* CC(Nc1ccc2c(c1)OCCn1cc(N3C(=O)OCC3C(F)F)nc1-2)C(N)=O (centres undefined) + C=CC(=O)N1CCN(c2nc(OCC3CCCN3C)nc3c(F)c(-c4nc(N)cc(C)c4C(F)(F)F)c(Cl)cc23)C(C)C1 | 93.9
* CCN1CCN(Cc2ccc(Nc3ncc(F)c(-c4cc(F)c5nc(C)n(C(C)C)c5c4)n3)nc2)CC1 + C=CC(=O)N1CCN(c2nc(OCC3CCCN3C)nc3c(F)c(-c4nc(N)cc(C)c4C(F)(F)F)c(Cl)cc23)C(C)C1 | 45.7
* C[C@@H](NC(=O)c1ncnc(N)c1Cl)c1ncc(C(=O)Nc2cc(C(F)(F)F)c(Cl)cn2)s1 + C=CC(=O)N1CCN(c2nc(OCC3CCCN3C)nc3c(F)c(-c4nc(N)cc(C)c4C(F)(F)F)c(Cl)cc23)C(C)C1 | 103
* CC(=O)OC12COC1CC(O)C1(C)C(=O)C(O)C3=C(C)C(OC(=O)C(O)C(NC(=O)OC(C)(C)C)c4ccccc4)CC(O)(C(OC(=O)c4ccccc4)C21)C3(C)C (centres undefined) + C=CC(=O)N1CCN(c2nc(OCC3CCCN3C)nc3c(F)c(-c4nc(N)cc(C)c4C(F)(F)F)c(Cl)cc23)C(C)C1 | 10.5
